Reported MIC strain 19 (E. coli J62-TEM-3 + 4 μg/mL clavulanic acid) is given for each of the following compounds.
system: Bacteria; experiment: MIC determination in combination with β-lactamase inhibitors (constant 4 μg/mL); assay type: cell-based; settings: strain 19; E. coli J62-TEM-3 + 4 μg/mL clavulanic acid
# do not omit the unit; it follows the number

{"COMPOUND": "C[C@H]1[C@H](NC(=O)/C(=N\\OCCOc2ccc(C(=N)N)cc2)c2csc(N)n2)C(=O)N1OS(=O)(=O)O [Example 47]", "VALUE_REPORTED": "0.5 mg/L"}

Okay, now this compound:
Ask: Quick one: MIC strain 19 (E. coli J62-TEM-3 + 4 μg/mL clavulanic acid) of CC1(C)[C@H](NC(=O)/C(=N\OCCOc2ccc(C(=N)NCCN)nc2)c2csc(N)n2)C(=O)N1OS(=O)(=O)O [Example 82] ?
Result: 0.25 mg/L

----------
system: strain 19; assay: MIC determination, broth microdilution (CLSI); assay type: cell-based
MEASURE: MIC (µg/mL)
Enter your answer as a number in µg/mL; do not include the unit.

{"COMPOUND": "CC1(C)[C@H](NC(=O)/C(=N\\OCCOc2ccc(C(=N)N)c(O)c2)c2csc(N)n2)C(=O)N1OS(=O)(=O)O [Example 1]", "VALUE_UNITS": "µg/mL", "VALUE_REPORTED": 0.25}

We now examine a further compound.
Ask: Consider the compound shown here: CC1(C)[C@H](NC(=O)/C(=N\OCCOc2ccc(C(=N)N)nc2)c2csc(N)n2)C(=O)N1OS(=O)(=O)O [Example 4] What is its recorded MIC?
Result: 0.125

----------
tested on: P. aeruginosa 2297-con (AmpC derepressed); experiment: MIC determination, broth microdilution (CLSI); type: cell-based; conditions: Pseudomonas aeruginosa, read-out: strain 8 MIC, strain 8
// reported MIC per item
# number only, unit µg/mL dropped from output

{"MOLECULE": "Cc1cc(OCCO/N=C(\\C(=O)N[C@@H]2C(=O)N(OS(=O)(=O)O)C2(C)C)c2csc(N)n2)ccc1C(=N)N", "ASSAYED_SYSTEM": "P. aeruginosa 2297-con (AmpC derepressed)", "VALUE_UNITS": "µg/mL", "MIC": 8}
{"MOLECULE": "CN1CC[C@H](NC(=N)c2ccc(OC[C@H](O/N=C(\\C(=O)N[C@@H]3C(=O)N(OS(=O)(=O)O)C3(C)C)c3csc(N)n3)C(=O)O)cc2)C1", "ASSAYED_SYSTEM": "P. aeruginosa 2297-con (AmpC derepressed)", "VALUE_UNITS": "µg/mL", "MIC": 2}
{"MOLECULE": "CC1(C)[C@H](NC(=O)/C(=N\\O[C@@H](COc2ccc(C(=N)NCC3CCCCN3)cc2)C(=O)O)c2csc(N)n2)C(=O)N1OS(=O)(=O)O (stereo partly drawn)", "ASSAYED_SYSTEM": "P. aeruginosa 2297-con (AmpC derepressed)", "VALUE_UNITS": "µg/mL", "MIC": 2}

Ask: Please provide the recorded MIC for C[C@H]1[C@H](NC(=O)/C(=N\OCCOc2ccc(C(=N)N)cc2Cl)c2csc(N)n2)C(=O)N1S(=O)(=O)O , tested on P. aeruginosa 2297-con (AmpC derepressed).
Result: 32

Ask: Can you check CC1(C)[C@H](NC(=O)/C(=N\O[C@H](COc2ccc(C(=N)NCCNc3ncccn3)cc2)C(=O)O)c2csc(N)n2)C(=O)N1OS(=O)(=O)O next?
Result: 32

Ask: Another molecule to look at: Cc1cc(OCCO/N=C(\C(=O)N[C@@H]2C(=O)N(S(=O)(=O)O)[C@H]2C)c2csc(N)n2)ccc1C(=N)N
Result: 32
